system: PYK2; construct: gene PTK2B; conditions: concentration: 1 μM,replicates: in singlicate; n = 1;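 note: KINOMEscan kinase panel screen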
Could you mark each record 1.0 if its %Inh falls strictly under 6%, and 0.0 if it equals or exceeds it?

compound | discrete label
Cc1cc2cn[nH]c2cc1-c1cccc2c(N)c(C(N)=O)nnc12 | 0.0
Nc1nc(Nc2ccccc2)cc(-c2ccc3c(N)n[nH]c3c2)n1 [GSK2225749] | 1.0
C=CC(=O)Nc1cc2c(Nc3ccc(F)c(Cl)c3)ncnc2cc1OCCCN1CCOCC1 [GW781483] | 1.0
C[C@@H](Oc1cc(-c2cnn(C3CCNCC3)c2)cnc1N)c1c(Cl)ccc(F)c1Cl | 0.0
